Target: mutant integrin CD11bE320A/CD18 (Homo sapiens, UniProt P11215, E336A)
Construct: expressed in transfected cells; host or cells: K562 (ATCC)
Sequence (P11215 17-1152 E336A): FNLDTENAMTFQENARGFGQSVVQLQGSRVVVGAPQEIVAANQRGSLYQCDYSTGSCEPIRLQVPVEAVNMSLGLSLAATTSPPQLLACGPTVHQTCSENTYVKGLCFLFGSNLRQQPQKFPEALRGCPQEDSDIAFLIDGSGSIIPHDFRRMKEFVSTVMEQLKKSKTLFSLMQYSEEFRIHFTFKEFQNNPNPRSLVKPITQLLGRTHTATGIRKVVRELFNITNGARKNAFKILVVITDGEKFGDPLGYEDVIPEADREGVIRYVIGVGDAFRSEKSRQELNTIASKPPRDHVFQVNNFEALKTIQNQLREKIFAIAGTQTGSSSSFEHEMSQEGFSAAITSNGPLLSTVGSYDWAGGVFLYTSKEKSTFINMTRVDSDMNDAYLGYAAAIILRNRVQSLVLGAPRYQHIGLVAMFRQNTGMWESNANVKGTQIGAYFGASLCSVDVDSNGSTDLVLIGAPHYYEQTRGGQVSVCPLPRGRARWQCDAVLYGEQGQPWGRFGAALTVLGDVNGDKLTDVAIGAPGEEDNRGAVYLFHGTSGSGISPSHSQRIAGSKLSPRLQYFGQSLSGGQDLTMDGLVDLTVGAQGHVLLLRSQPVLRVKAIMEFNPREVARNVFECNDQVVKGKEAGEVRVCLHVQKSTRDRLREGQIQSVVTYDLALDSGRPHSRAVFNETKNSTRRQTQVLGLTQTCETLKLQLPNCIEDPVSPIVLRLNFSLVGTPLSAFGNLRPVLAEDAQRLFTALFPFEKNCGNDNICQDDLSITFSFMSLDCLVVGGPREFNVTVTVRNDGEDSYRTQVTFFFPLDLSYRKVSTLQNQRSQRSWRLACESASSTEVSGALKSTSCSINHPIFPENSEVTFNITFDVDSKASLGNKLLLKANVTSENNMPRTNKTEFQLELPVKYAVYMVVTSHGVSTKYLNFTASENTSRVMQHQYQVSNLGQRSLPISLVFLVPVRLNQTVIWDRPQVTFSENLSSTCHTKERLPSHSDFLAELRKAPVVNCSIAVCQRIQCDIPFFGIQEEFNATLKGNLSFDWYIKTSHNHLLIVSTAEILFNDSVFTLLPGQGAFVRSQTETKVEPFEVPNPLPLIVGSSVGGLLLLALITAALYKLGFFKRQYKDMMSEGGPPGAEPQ
Sequence (P05107 23-769 partner): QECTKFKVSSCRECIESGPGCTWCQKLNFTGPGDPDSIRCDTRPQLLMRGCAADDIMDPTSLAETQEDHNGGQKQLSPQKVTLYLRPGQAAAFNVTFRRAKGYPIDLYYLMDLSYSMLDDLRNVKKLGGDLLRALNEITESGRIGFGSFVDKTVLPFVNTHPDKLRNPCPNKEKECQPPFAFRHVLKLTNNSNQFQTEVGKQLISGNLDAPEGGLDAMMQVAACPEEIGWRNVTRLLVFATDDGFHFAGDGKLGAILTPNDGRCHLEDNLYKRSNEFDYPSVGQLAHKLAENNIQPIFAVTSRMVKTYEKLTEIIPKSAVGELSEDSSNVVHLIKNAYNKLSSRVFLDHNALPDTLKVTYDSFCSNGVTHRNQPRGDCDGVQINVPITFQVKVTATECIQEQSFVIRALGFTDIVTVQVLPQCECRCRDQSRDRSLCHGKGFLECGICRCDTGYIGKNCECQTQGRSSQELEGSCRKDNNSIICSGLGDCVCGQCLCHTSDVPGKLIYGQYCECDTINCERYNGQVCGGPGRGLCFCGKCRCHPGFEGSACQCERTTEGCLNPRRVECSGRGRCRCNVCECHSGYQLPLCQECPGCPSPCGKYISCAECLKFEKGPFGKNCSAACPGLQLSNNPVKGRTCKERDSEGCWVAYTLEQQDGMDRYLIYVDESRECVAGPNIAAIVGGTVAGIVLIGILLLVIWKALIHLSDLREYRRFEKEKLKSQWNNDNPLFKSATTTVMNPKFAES
Assay: HTS cell adhesion assay, K562 E320A cells on immobilized fibrinogen
Assay type: cell-based
Details: Table 3, adhesion to fibrinogen, five point dose-response
Examples of compounds with documented log10(EC50) follow.
Reported property: log10(EC50) (log10 of the value in µM)

1. COc1ccc(/C=C2/SC(=O)N(CC(=O)Nc3cc(C)on3)C2=O)cc1OC	0.90
2. O=C(Nc1ccc2nn(-c3ccccc3)nc2c1)c1ccc2c(c1)OCO2	2.75
3. Cc1ccc2sc(-c3ccc(NC(=O)CCN4C(=O)c5ccccc5C4=O)cc3)nc2c1	0.71
4. CC1CCN(S(=O)(=O)c2ccc(NC(=O)Cn3nnc(-c4ccccc4)n3)cc2)CC1	0.78
5. COC(=O)/C(=C1/Oc2cc3c(cc2S1)OCO3)C(F)(F)F	2.13
6. Cc1cc(C)cc(-n2c(N)c(C(=O)Nc3c(C)n(C)n(-c4ccccc4)c3=O)c3nc4ccccc4nc32)c1	0.43
7. COC(=O)c1c(NC(=O)CN2CCC3(O)CCCCC3C2c2ccc(OC)cc2OC)sc(C)c1C (stereo not shown)	1.78
8. COc1ccccc1NC(=O)c1sc2ncn(Cc3ccc(C)cc3)c(=O)c2c1C	0.84
9. COC(=O)c1[nH]c2ccc(C)cc2c1NC(=O)CN1CCCc2ccccc21	0.00
10. CN(C)c1ccc(NC(=O)CN2C(=O)CC(c3ccccc3)=Nc3ccccc32)cc1	1.00
11. Nc1c(C(=O)Nc2nccs2)sc2nc(-c3cccs3)cc(C(F)(F)F)c12	0.61
12. COc1ccc(C(=O)CSc2nnc(NC(=O)C3CC(=O)N(c4ccccc4)C3)s2)cc1 (stereo not shown)	0.99
13. CCOc1ccc(C(=O)Nc2ccc(N3CCCC3)cc2)cc1	0.99
14. CCOc1ccc(-c2nnc3ccc(SCC(=O)Nc4nc5ccc(C)cc5s4)nn23)cc1	1.08
15. CCCSc1nnc(NC(=O)c2sc3nc(-c4cccs4)ccc3c2N)s1	0.89
16. Cc1ccc(CCN2CC(C(=O)NCCCN3CCCCCC3)CC2=O)cc1 (stereo not shown)	0.57

Data credit: patent US20180319865A1
